applied-conditions: pH 13.0
endpoint: logD
Give the figure by itself; no unit, no explanation.

Example results:
compound-structure-string	logD
NCCCN	-1.43
NNc1ccc([N+](=O)[O-])cc1	1.41
CC(=O)c1ccc(N2CCCCC2)cc1	3.13

Q) Which logD is reported for this molecule? NCCN1CCCC1
A) 0.08

Q) Which logD is reported for this molecule? COc1c(C)ccc(Cc2cnc(N)nc2N)c1C(C)(C)C
A) 3.05

Q) Which logD is reported for this molecule? OCCNCc1ccccc1
A) 0.79

Q) Which logD is reported for this molecule? COc1cccc(OC)c1Cc1cnc(N)nc1N
A) 1.7

Q) Which logD is reported for this molecule? CCOC(CC)(OCC)OCC
A) 1.97

Q) Which logD is reported for this molecule? CC(C)(C)NCCO
A) 0.41
